# system.under.test: ABCA4 P1380L (Homo sapiens, UniProt P78363, P1380L)
# Construct: expressed in transfected cells
# Sequence (P78363 whole entry P1380L): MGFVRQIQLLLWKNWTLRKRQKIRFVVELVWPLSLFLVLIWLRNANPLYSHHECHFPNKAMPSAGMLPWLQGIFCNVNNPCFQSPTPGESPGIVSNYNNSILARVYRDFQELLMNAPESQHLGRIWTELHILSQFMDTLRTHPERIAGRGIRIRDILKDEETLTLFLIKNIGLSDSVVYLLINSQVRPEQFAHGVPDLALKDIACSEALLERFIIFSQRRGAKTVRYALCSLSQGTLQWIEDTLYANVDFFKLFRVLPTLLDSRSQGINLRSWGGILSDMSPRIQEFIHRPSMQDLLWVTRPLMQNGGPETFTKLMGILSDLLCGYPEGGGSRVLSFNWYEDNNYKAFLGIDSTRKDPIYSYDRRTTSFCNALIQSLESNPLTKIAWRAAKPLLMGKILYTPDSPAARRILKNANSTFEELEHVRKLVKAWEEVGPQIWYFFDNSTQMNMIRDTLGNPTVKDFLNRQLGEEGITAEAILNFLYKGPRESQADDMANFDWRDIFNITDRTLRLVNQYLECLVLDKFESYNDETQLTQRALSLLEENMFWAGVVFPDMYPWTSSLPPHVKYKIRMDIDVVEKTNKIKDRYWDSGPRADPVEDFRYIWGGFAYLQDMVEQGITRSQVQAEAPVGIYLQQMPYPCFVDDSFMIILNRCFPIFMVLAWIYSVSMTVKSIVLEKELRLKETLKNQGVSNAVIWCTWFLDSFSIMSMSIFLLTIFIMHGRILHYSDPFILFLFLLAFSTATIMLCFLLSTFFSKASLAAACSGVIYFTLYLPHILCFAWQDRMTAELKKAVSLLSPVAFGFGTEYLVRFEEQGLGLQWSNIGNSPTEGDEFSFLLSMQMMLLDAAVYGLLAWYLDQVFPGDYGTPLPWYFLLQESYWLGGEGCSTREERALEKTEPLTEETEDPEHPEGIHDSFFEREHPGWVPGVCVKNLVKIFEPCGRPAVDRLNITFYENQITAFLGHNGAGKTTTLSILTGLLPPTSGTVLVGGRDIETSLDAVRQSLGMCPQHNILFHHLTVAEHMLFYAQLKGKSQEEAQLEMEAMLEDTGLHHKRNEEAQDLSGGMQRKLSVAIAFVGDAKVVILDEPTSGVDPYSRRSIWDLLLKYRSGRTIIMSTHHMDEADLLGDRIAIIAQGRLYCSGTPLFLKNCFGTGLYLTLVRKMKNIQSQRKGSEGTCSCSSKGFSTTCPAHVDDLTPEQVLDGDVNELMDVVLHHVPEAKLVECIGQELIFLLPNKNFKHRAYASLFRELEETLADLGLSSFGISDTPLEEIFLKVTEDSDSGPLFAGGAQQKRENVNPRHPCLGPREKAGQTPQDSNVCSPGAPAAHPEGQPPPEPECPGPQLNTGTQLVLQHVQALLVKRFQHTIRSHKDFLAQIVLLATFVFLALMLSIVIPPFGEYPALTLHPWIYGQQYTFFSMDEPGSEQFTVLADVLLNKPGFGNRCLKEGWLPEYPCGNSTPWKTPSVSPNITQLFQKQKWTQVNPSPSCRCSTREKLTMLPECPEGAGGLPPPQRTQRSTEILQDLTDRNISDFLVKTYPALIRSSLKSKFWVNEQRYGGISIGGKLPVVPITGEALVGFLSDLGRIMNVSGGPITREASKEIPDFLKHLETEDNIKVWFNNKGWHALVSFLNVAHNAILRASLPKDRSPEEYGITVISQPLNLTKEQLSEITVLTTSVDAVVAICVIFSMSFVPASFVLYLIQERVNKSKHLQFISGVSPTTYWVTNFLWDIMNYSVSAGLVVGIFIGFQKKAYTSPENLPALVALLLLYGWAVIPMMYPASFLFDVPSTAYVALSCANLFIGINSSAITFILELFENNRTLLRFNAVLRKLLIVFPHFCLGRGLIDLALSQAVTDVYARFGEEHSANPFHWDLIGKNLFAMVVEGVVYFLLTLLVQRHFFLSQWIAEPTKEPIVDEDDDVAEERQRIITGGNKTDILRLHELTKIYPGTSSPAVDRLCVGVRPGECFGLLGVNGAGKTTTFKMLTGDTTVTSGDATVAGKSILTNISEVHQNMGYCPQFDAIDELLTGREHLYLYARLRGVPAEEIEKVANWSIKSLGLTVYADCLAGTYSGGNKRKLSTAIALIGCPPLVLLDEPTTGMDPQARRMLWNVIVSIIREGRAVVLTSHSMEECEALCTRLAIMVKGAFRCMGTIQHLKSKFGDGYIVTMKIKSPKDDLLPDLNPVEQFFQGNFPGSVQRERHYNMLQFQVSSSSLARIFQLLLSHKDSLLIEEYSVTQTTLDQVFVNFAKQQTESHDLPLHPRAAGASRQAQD
# run.description: A4 correction dose-response assay: ABCA4 P1380L HiBit protein expression
# Type: cell-based
# test.conditions: HEK-293 cells stably expressing HiBit-tagged ABCA4 P1380L; 24 h treatment; top concentration 30 μM; read-out: ABCA4 P1380L EC50, Emax
pEC50: −log10 of the molar value.
A collection of molecules and their measured pEC50

| item.smiles | pEC50 |
| --- | --- |
| Cc1cc(C)c(Oc2nc(-c3cc(C#N)c[nH]c3=O)ccc2NS(C)(=O)=O)c(C)n1 | > 6.00 |
| Cc1cc(C)c(Oc2nc(-n3cnc(C#N)c3)ccc2NS(C)(=O)=O)c(C)c1 | > 4.60 |
| Cc1nc(C)c(Oc2nc(-c3cncc(C4CC4)c3)ccc2NS(C)(=O)=O)c(C)n1 | > 6.00 |
| Cc1cc(C)c(Oc2nc(N3CC4(C3)CN(S(=O)(=O)C3CC3)C4)ccc2NS(C)(=O)=O)c(C)c1 | < 4.60 |
| Cc1cc(C2CC2)nc(C2CC2)c1Oc1nc(-c2cncc(C#N)c2)ccc1S(=O)(=O)NC1CCOCC1 | 5.00 to 6.00 |
| Cc1cc(C)c(Oc2nc(-c3cncc(Cl)c3)ccc2NS(=O)(=O)C2CC2)c(C)n1 | 5.00 to 6.00 |
| Cc1cc(C(F)(F)F)nc(C2CC2)c1Oc1nc(-c2cncc(C#N)c2)ccc1NS(=O)(=O)C1CC1 | > 6.00 |

###

A collection of compounds and their measured pEC50
# system.under.test: ABCD2 WT (Homo sapiens, UniProt Q9UBJ2)
# Sequence (Q9UBJ2 whole entry): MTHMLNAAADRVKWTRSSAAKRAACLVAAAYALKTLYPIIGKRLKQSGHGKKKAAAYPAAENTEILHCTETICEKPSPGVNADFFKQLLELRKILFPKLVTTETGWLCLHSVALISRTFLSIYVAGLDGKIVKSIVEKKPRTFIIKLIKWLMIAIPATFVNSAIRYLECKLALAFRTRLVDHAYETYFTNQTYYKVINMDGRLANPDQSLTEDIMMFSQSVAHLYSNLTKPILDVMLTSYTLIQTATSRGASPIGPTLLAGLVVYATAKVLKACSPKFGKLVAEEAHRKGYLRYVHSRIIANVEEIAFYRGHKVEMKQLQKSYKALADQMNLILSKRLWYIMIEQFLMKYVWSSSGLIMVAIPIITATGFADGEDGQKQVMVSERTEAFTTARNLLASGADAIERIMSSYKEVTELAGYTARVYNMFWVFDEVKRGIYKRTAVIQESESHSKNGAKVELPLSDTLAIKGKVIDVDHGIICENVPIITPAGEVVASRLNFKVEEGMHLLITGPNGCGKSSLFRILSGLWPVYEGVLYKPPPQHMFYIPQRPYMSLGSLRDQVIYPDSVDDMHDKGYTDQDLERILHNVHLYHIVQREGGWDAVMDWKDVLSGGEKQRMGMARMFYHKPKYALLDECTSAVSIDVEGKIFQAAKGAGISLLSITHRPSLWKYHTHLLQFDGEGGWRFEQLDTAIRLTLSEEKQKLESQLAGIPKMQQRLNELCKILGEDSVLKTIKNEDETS
# run.description: D2 correction dose-response assay: ABCD2 WT HiBit protein expression
# test.conditions: HEK-293/ABCD2 WT cells, 24 hours treatment, HiBit luminescence; class combines EC50 and Mean MaxAct (fold); read-out: ABCD2 WT EC50, Emax
pEC50: −log10 of the molar value.

| compound | system.under.test | pEC50 |
| --- | --- | --- |
| Cc1cc(C)c(Oc2nc(-c3cncc(S(C)(=N)=O)c3)ccc2NS(C)(=O)=O)c(C)n1 (stereo not shown) | ABCD2 WT (Homo sapiens, UniProt Q9UBJ2) | < 4.60 |
| Cc1nc(C2COC2)nc(C2CC2)c1Oc1nc(-c2cncc(C#N)c2)ccc1NS(C)(=O)=O | ABCD2 WT (Homo sapiens, UniProt Q9UBJ2) | > 6.00 |
| Cc1nc(C(F)(F)F)cc(C2CC2)c1Oc1nc(-c2cncc(C#N)c2)ccc1N(C)S(C)(=O)=O | ABCD2 WT (Homo sapiens, UniProt Q9UBJ2) | < 4.60 |
| Cc1cc(C)c(Oc2nc(-c3cncc(Cl)c3)ccc2NS(=O)(=O)C(C)(C)C)c(C)c1 | ABCD2 WT (Homo sapiens, UniProt Q9UBJ2) | < 4.60 |

###

# system.under.test: ABCA4 P1380L (Homo sapiens, UniProt P78363, P1380L)
# Construct: expressed in transfected cells
# run.description: A4 correction dose-response assay: ABCA4 P1380L HiBit protein expression
# Format: cell-based
# test.conditions: HEK-293 cells stably expressing HiBit-tagged ABCA4 P1380L; 24 h treatment; top concentration 30 μM; read-out: ABCA4 P1380L EC50, Emax
pEC50: −log10 of the molar value.
endpoint.name: pEC50

| compound | endpoint.name | experimental.value |
| --- | --- | --- |
| Cc1cc(C)c(Oc2nc(-c3cncc(C#N)c3)ccc2NS(C)(=O)=O)c(C)c1 [Compound I-39] | pEC50 | > 6.00 |
| Cc1cc(C(F)(F)F)nc(C2CC2)c1Oc1nc(-c2cncc(C#N)c2)ccc1S(=O)(=O)N1CCOCC1 [Compound I-290] | pEC50 | < 4.60 |
| Cc1cc(C)c(Oc2nc(-c3cncc(Cl)c3)ccc2NS(C)(=O)=O)c(C2CC2)c1 [Compound I-57] | pEC50 | 5.00 to 6.00 |
| Cc1cc(C2CC2)nc(C)c1Oc1nc(-c2cncc(Cl)c2)ccc1NS(=O)(=O)C1COC1 [Compound I-236] | pEC50 | > 4.60 |
| Cc1cc(C)c(Oc2nc(-c3cncc(C#N)c3)ccc2NS(C)(=O)=O)c(C2CC2)n1 [Compound I-268] | pEC50 | > 6.00 |
| Cc1cc(C)c(Oc2nc(-c3cncc(Cl)c3)ccc2S(=O)(=O)Nc2cnn(C)c2)c(C2CC2)c1 [Compound I-75] | pEC50 | 5.00 to 6.00 |
